These entries and their values trace back to ChEMBL document CHEMBL1201862.

Item-by-item account of GI50
system: COLO 205; assay: NCI tumour cell line growth inhibition, 48 h
Activity calls are given as the source filed them. Rule as the data show it: active = GI50 up to about 1.1 µM and inactive = higher.

Known results for molecules:
molecule | experimental system | GI50
COc1cc(CNC2=NCCC2)cc(OC)c1OC | COLO 205 | > 100 µM (inactive)
CN(CCCN(C)CCc1ccc(Cl)c(Cl)c1)CCCN1CCCC1 | COLO 205 | 2.28 µM (inactive)
O=C(c1ccccc1Br)C(F)(F)F | COLO 205 | 88.9 µM (inactive)

Please examine the following record next.
Please give the measured GI50 for this molecule: COC(=O)C(c1ccc(OC)cc1)N1C(=O)[C@@H](NC(=O)c2ccccc2)[C@H]1[C@@H](C)O (stereo not given in full)
> 100 µM (inactive)
